System: Quackgrass
Assay: Pre-emergent herbicidal activity (Table A)
Assay type: in vivo
Details: pre-emergence, Rhqg, 11.2 kg/ha, 10-14 days, read-out: herbicidal rating (% inhibition)
Give measured inhibition at 11200 g/ha for each item. Keep answers brief.

Query: Return reported inhibition at 11200 g/ha. Input molecule: "COC(=O)c1c(OC)nc(C(F)(F)Cl)c(C(=O)OC)c1CC(C)C"
Result: 75 to 100%

Query: Give the measured inhibition at 11200 g/ha for "COC(=O)c1c(OC)nc(C(F)(F)F)c(C(=O)Cl)c1CC(C)C"
Result: 0 to 24%

Query: Identify measured inhibition at 11200 g/ha corresponding to "CNC(=O)c1c(OC)nc(C(F)(F)F)c(C(=O)OC)c1CC(C)C"
Result: 75 to 100%

Query: Return the recorded inhibition at 11200 g/ha value; entry: COC(=O)c1c(OC)nc(C(F)(F)F)c(C2=NC(C)CS2)c1CC(C)C (centres unmarked)
Result: 75 to 100%

Query: Please give the documented inhibition at 11200 g/ha of "COC(=O)c1c(C(F)(F)F)nc(OC)c(C(=O)NCCO)c1CC(C)C"
Result: 0 to 24%
